This collection of values is drawn from the FLAb antibody collection (doi:10.7554/elife.23156).

This section presents variants with their documented Kd values.
B1: scFv; the commonest letter at each place (parent)
chain 1: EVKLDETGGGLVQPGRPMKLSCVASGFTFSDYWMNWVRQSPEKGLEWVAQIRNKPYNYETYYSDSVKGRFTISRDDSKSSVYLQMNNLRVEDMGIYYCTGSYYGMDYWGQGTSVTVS
chain 2: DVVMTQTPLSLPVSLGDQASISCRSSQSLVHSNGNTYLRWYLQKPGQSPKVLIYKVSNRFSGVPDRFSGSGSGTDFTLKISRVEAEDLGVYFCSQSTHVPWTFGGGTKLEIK

Variants of: B1
ASSAY_EXPLANATION: Kd (Tite-Seq)
CONDITION_DETAILS: with fluorescein; format: scFv 4-4-20, heavy + light
MEASURED_PARAMETER: Kd

# CHANGES, MEASURED_PARAMETER, ASSAY_RESULT
measured = [
    ("chain 1 W33N V37Q", "Kd", "≥ 10 µM"),
    ("chain 1 G100L G109V", "Kd", "≥ 10 µM"),
    ("chain 1 T28G F29R W36P", "Kd", "≥ 10 µM"),
    ("chain 1 Y102H G109P", "Kd", "≥ 10 µM"),
    ("chain 1 W33R W36Y", "Kd", "≥ 10 µM"),
    ("chain 1 S101W G109V", "Kd", "≥ 10 µM"),
    ("chain 1 F29S V37C", "Kd", "0.00638 µM"),
    ("chain 1 D31T V37D", "Kd", "≥ 10 µM"),
    ("chain 1 S101R W108L", "Kd", "≥ 10 µM"),
    ("chain 1 S30P V37S", "Kd", "0.000939 µM"),
    ("chain 1 Y102H Y103C", "Kd", "3.94 µM"),
    ("chain 1 S30Y Y32P", "Kd", "≥ 10 µM"),
    ("chain 1 T28H W36G", "Kd", "≥ 10 µM"),
    ("chain 1 G104S W108R", "Kd", "≥ 10 µM"),
    ("chain 1 G104S Y107S", "Kd", "≥ 10 µM"),
    ("chain 1 Y102A Y107P", "Kd", "≥ 10 µM"),
    ("chain 1 G109Q", "Kd", "≥ 10 µM"),
    ("chain 1 F29T Y32S W33H", "Kd", "≥ 10 µM"),
    ("chain 1 Y32L W36Y", "Kd", "3.74 µM"),
    ("chain 1 Y103A W108E", "Kd", "≥ 10 µM"),
    ("chain 1 Y102M M105F", "Kd", "≥ 10 µM"),
    ("chain 1 Y103P D106M", "Kd", "≥ 10 µM"),
    ("chain 1 N35H W36L", "Kd", "≥ 10 µM"),
    ("chain 1 Y103T M105H", "Kd", "≥ 10 µM"),
    ("chain 1 F29T M34N", "Kd", "≥ 10 µM"),
    ("chain 1 Y102W Y107S", "Kd", "0.0944 µM"),
    ("chain 1 D106G Y107W", "Kd", "≥ 10 µM"),
    ("chain 1 G104V Y107K", "Kd", "≥ 10 µM"),
    ("chain 1 S30K Y32E", "Kd", "≥ 10 µM"),
    ("chain 1 G100W S101D G109V", "Kd", "≥ 10 µM"),
    ("chain 1 V37W", "Kd", "9.02 µM"),
    ("chain 1 G109R", "Kd", "≥ 10 µM"),
    ("chain 1 D31R W36M V37G", "Kd", "0.79 µM"),
    ("chain 1 D31T Y32G", "Kd", "0.0391 µM"),
    ("chain 1 T28S S30M", "Kd", "0.00175 µM"),
    ("chain 1 D31T W36C", "Kd", "≥ 10 µM"),
    ("chain 1 G100V Y107N G109P", "Kd", "≥ 10 µM"),
    ("chain 1 M34P W36N", "Kd", "≥ 10 µM"),
    ("chain 1 S30C V37D", "Kd", "2.01 µM"),
    ("chain 1 T28Y M34L N35C", "Kd", "≥ 10 µM"),
    ("chain 1 G100N G104F", "Kd", "≥ 10 µM"),
    ("chain 1 D31P Y32K", "Kd", "≥ 10 µM"),
    ("chain 1 Y107L W108D", "Kd", "≥ 10 µM"),
    ("chain 1 M34I V37I", "Kd", "0.00827 µM"),
    ("chain 1 Y102F G104H", "Kd", "≥ 10 µM"),
    ("chain 1 M34T W36L", "Kd", "≥ 10 µM"),
    ("chain 1 S30Y W33L", "Kd", "≥ 10 µM"),
    ("chain 1 N35H", "Kd", "≥ 10 µM"),
    ("chain 1 M105Q G109M", "Kd", "≥ 10 µM"),
    ("chain 1 G104A M105T", "Kd", "≥ 10 µM"),
    ("chain 1 S101R Y107C", "Kd", "≥ 10 µM"),
    ("chain 1 Y32I", "Kd", "≥ 10 µM"),
    ("chain 1 M105C D106S", "Kd", "3.37 µM"),
    ("chain 1 T28K W33S", "Kd", "≥ 10 µM"),
    ("chain 1 F29L N35D", "Kd", "≥ 10 µM"),
    ("chain 1 G104D Y107F", "Kd", "≥ 10 µM"),
    ("chain 1 Y102C G104H", "Kd", "≥ 10 µM"),
    ("chain 1 S30D", "Kd", "0.00205 µM"),
    ("chain 1 Y103E W108N", "Kd", "≥ 10 µM"),
    ("chain 1 G100H S101H", "Kd", "≥ 10 µM"),
    ("chain 1 F29I W33A W36Y", "Kd", "≥ 10 µM"),
    ("chain 1 Y107R G109H", "Kd", "≥ 10 µM"),
    ("chain 1 G100T", "Kd", "0.921 µM"),
    ("chain 1 Y102A M105N", "Kd", "0.0113 µM"),
    ("chain 1 G100P W108M", "Kd", "≥ 10 µM"),
    ("chain 1 W33Q W36S", "Kd", "7.33 µM"),
    ("chain 1 D106H W108I", "Kd", "≥ 10 µM"),
    ("chain 1 Y32A W33C", "Kd", "≥ 10 µM"),
    ("chain 1 G100A W108Y", "Kd", "≤ 0.000316 µM"),
    ("chain 1 S101L G109I", "Kd", "≥ 10 µM"),
    ("chain 1 Y32E W36N", "Kd", "≥ 10 µM"),
    ("chain 1 G104M Y107H", "Kd", "≥ 10 µM"),
    ("chain 1 F29T Y32R", "Kd", "1.14 µM"),
    ("chain 1 D31V V37E", "Kd", "0.205 µM"),
    ("chain 1 D31S Y32C", "Kd", "6.61 µM"),
]
